# Tested on: U251 CNS
# EXPERIMENT: NCI-60 one-dose screen, 48 h
# ASSAY_SETUP: 10 µM unless noted
Compounds without any hit were thinned out: in the full panel of roughly 83,000, 20% have a hit. Active and inactive are the calls of the source. The calls were made as follows: active = growth percent below 10; inactive = the rest.
Form entry, call: pick from label 1 = active, label 0 = inactive

# example entries with known answers
COC(=O)C1C(O)C(C)C(O)C(C)C=C(C)C2=C3C(=C(C)C(=O)c4c(O)c(c(C)c(OC(C)=O)c43)NC(=O)C(C)=C/C=C\C(C)C(O)C(C)C1O)OCO2 (stereo not given) | label 0
CCCCCCCCCCCCCCCCCCOCC(COP(=O)([O-])OCC[N+](C)(C)C)OC (stereo not given) | label 0
O=C1NC(=O)c2cc([N+](=O)[O-])ccc21 | label 0

I would be grateful if you could indicate the recorded call for CN1CCN(CCCN2c3ccccc3Sc3ccc(C(F)(F)F)cc32)CC1 .
label 0

I would be grateful if you could indicate the recorded call for Cc1cc(O)c(C(C)C)cc1Cl .
label 0

I would be grateful if you could indicate the recorded call for COC1OCC(O)C(O)C1O (stereo not given) .
label 0

I would be grateful if you could indicate the recorded call for O=C(O)COc1ccc(OCC(=O)O)cc1 .
label 1

I would be grateful if you could indicate the recorded call for C[n+]1c2cc(N)ccc2cc2ccc(N)cc21 .
label 1

I would be grateful if you could indicate the recorded call for O=[N+]([O-])C1=C(c2ccccc2)SC=C(c2ccccc2)S1 .
label 0

I would be grateful if you could indicate the recorded call for CSC1SCC2C(=O)N(C)C(C(C)C)C(=O)OCC(NC(=O)c3cnc4ccccc4n3)C(=O)NC(C)C(=O)N(C)C1C(=O)N(C)C(C(C)C)C(=O)OCC(NC(=O)c1cnc3ccccc3n1)C(=O)NC(C)C(=O)N2C (stereo not given) .
label 1
